Target: Receptor-interacting serine/threonine-protein kinase 1 (Homo sapiens)
Sequence (Q13546 whole entry): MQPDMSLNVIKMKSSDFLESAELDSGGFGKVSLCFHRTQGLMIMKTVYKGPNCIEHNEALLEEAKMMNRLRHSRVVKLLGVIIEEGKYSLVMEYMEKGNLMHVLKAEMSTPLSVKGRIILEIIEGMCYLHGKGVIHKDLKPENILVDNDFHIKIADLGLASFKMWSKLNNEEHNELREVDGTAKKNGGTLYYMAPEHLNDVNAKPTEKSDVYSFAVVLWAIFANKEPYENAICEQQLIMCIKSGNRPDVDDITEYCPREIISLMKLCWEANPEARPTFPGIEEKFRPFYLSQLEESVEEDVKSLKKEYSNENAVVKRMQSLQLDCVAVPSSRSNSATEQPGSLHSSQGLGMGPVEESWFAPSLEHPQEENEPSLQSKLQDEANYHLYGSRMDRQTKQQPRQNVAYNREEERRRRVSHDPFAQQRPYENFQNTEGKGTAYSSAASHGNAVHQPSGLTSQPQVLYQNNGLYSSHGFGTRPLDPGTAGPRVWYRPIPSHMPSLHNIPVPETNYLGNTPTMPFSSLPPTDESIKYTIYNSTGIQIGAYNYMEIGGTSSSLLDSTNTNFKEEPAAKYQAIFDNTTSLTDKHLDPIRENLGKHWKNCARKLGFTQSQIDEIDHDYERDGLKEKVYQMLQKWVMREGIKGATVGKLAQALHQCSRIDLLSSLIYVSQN
Assay: Inhibition of RIPK1 (unknown origin)
pIC50: −log10 of the molar value.
Some molecules, each annotated with its measured pIC50.
recorded.endpoint: pIC50

>>> print(df.to_string())
                           structure  measured_number
0       Oc1ccc(-c2cnc3[nH]ccc3c2)cc1             5.83
1  NC(=O)c1ccc(-c2cc3cccnc3[nH]2)cc1             7.05

----------
Biological target: Receptor-interacting serine/threonine-protein kinase 1 (Homo sapiens)
Experiment: Inhibition of human RIPK1 by ADP-Glo assay
pIC50: −log10 of the molar value.
recorded.endpoint: pIC50

                                  structure  recorded_endpoint  measured_number
0  O=C(c1ccc(-c2cc3cccnc3[nH]2)cc1)N1CCOCC1              pIC50             7.10

----------
Target: Receptor-interacting serine/threonine-protein kinase 3 (Homo sapiens)
Sequence (Q9Y572 whole entry): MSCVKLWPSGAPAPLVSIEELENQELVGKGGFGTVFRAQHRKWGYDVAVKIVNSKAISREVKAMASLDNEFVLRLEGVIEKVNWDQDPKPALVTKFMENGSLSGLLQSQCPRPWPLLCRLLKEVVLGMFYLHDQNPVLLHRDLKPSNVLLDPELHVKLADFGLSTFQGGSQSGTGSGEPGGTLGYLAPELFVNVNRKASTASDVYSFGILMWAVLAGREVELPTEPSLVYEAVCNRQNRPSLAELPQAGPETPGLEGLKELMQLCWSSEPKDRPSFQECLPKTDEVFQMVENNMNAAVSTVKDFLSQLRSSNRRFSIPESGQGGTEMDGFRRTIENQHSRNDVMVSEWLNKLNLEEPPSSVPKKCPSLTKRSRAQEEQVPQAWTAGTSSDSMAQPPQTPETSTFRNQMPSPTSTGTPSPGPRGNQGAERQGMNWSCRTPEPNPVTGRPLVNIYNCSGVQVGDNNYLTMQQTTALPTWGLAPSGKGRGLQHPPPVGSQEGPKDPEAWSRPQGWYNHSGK
recorded.endpoint: IC50

>>> print(df.to_string())
                                  structure   result
0  O=C(c1ccc(-c2cc3cccnc3[nH]2)cc1)N1CCOCC1  > 20 µM

----------
Assay: Efflux ratio of apparent permeability across basolateral to apical side over apical to basolateral side in dog MDCK-MDR1 cells at 5 uM incubated for 90 mins by LC-MS/MS analysis
Type: ADME, cell-based, Canis lupus familiaris
Some compounds, each annotated with its measured efflux ratio at 1.5 h, 5 µM.
recorded.endpoint: efflux ratio at 1.5 h, 5 µM

>>> df
                                   compound  result
0  Cc1cc(-n2cc(C(=O)N3CCO[C@@H](C)C3)c3ccc(OC(C)c4ccc(F)cn4)nc32)n[nH]1 (some centres not stated)       1
1  Cc1cc(-n2cc(C(=O)N3CCOCC3)c3ccc(N[C@@H](C)c4ccc(F)cn4)nc32)[nH]n1      18

----------
Some compounds, each annotated with its measured pIC50.
Biological target: Phosphatidylinositol 4,5-bisphosphate 3-kinase catalytic subunit delta isoform (Homo sapiens)
Sequence (O00329 whole entry, canonical isoform): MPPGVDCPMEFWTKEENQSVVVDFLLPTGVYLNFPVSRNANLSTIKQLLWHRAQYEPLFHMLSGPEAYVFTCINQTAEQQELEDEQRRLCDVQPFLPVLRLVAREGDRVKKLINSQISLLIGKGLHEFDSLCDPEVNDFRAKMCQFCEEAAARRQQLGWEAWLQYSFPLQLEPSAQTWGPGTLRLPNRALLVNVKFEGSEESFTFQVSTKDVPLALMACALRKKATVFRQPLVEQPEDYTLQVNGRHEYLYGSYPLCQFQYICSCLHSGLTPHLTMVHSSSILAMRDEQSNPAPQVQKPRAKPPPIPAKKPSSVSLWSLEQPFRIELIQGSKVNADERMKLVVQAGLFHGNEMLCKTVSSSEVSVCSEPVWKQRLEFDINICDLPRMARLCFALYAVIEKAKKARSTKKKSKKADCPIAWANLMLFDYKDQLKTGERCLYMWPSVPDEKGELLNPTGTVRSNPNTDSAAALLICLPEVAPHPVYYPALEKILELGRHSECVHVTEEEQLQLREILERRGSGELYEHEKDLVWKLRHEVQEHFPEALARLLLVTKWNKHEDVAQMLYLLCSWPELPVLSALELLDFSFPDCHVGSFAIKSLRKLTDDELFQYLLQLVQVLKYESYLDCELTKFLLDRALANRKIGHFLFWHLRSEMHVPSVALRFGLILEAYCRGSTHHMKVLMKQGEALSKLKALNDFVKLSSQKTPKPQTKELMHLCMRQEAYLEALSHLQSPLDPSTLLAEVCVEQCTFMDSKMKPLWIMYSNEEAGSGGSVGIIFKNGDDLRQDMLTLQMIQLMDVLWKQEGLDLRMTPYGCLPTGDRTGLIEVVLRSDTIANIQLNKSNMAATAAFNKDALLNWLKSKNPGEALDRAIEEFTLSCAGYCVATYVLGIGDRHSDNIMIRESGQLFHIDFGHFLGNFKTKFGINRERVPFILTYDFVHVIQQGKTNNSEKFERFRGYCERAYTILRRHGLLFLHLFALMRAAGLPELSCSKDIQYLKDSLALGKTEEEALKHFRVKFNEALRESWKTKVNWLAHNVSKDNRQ
Test: Inhibition of PI3Kdelta (unknown origin)
pIC50: −log10 of the molar value.
recorded.endpoint: pIC50

>>> print(df.to_string())
                                  structure  measured_number
0  O=S(=O)(Nc1cc(-c2cnc3[nH]cc(-c4ccc(N5CCOCC5)nc4)c3c2)cnc1Cl)c1ccccc1             9.52
1  O=S(=O)(Nc1cc(-c2cnc3[nH]cc(-c4cnn(CCN5CCOCC5)c4)c3c2)cnc1Cl)c1ccccc1             9.52

----------
Molecular target: Phosphatidylinositol 4,5-bisphosphate 3-kinase catalytic subunit gamma isoform (Homo sapiens)
Sequence (P48736 whole entry, canonical isoform): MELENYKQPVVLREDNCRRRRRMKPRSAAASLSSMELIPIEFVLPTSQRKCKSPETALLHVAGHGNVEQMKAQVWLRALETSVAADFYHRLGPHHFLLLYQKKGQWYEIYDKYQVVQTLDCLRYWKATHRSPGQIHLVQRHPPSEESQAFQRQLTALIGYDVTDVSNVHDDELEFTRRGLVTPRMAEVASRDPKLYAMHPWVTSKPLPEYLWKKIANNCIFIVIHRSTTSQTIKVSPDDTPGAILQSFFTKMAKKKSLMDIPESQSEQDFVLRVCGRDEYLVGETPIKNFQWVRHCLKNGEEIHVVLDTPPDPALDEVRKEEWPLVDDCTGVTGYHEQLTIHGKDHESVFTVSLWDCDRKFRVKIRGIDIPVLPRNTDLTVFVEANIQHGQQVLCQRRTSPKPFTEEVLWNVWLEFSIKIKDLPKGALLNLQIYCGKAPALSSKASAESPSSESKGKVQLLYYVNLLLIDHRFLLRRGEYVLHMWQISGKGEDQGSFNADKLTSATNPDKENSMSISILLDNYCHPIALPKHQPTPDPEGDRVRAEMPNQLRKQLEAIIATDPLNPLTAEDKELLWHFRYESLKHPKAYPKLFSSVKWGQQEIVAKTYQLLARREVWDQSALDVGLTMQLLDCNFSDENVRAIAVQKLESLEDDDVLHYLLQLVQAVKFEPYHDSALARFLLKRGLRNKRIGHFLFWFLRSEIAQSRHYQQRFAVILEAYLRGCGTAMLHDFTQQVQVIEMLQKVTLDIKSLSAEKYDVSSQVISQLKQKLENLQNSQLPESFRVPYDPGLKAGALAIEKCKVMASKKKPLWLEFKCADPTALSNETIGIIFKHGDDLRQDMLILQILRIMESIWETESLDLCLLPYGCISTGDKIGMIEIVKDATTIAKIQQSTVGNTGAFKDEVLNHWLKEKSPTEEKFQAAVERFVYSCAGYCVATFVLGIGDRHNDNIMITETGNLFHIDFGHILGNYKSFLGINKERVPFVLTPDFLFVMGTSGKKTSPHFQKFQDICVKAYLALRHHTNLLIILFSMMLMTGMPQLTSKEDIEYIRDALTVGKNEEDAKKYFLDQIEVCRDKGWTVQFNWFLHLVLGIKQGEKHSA
Experiment: Inhibition of PI3Kgamma (unknown origin)
pIC50: −log10 of the molar value.
Some compounds, each annotated with its measured pIC50.
recorded.endpoint: pIC50

>>> df
                                  structure  measured_number
0  O=S(=O)(Nc1cc(-c2cnc3[nH]cc(-c4ccc(N5CCOCC5)nc4)c3c2)cnc1Cl)c1ccccc1             9.52
1  O=S(=O)(Nc1cc(-c2cnc3[nH]cc(-c4cnn(CCN5CCOCC5)c4)c3c2)cnc1Cl)c1ccccc1             9.52
